System: CWR22R
protocol: Antiproliferative activity against human 22Rv1 cells incubated up to 144 hrs by Coulter particle count and size analyzer
Assay type: functional, cell-based
assay.context: 22Rv1, 144 h
measured.quantity: IC50 (µM)
API: value field is a number in µM; no unit string.

Take a look at these entries with their results.
>  <compound>
COc1ccc(-c2oc3ccccc3c(=O)c2O)cc1OC [3-HYDROXY-3',4'-DIMETHOXYFLAVONE]

>  <reported.value>
12.3

$$$$
>  <compound>
O=c1c(O)c(-c2ccc(O)c(O)c2)oc2cc(O)cc(O)c12

>  <reported.value>
15.5

$$$$
>  <compound>
O=c1c(O)c(-c2ccc(O)c(O)c2)oc2cc(F)ccc12

>  <reported.value>
9.2

$$$$
>  <compound>
O=c1c(O)c(-c2ccc(O)cc2)oc2cc(O)ccc12

>  <reported.value>
30.2

$$$$
>  <compound>
O=c1c(O)c(-c2ccc(O)c(O)c2)oc2cc(F)cc(F)c12

>  <reported.value>
16.3

$$$$
>  <compound>
O=c1c(O)c(-c2cc(O)c(O)c(O)c2)oc2cc(F)cc(F)c12

>  <reported.value>
6.3

$$$$

Q: Give the measured IC50 of COc1ccc(-c2oc3cc(F)ccc3c(=O)c2O)cc1 .
Ans: 7.1

Q: Give the measured IC50 of O=c1c(O)c(-c2ccc(O)cc2)oc2cc(F)ccc12 .
Ans: 8.4
